Kindly supply the reported GI50 values for the records listed here.
# Test system: SNB-19
# Test Details: NCI tumour cell line growth inhibition, 48 h
Active and inactive are the calls of the source. Cut-off read from the data, not from the text of the source: active = GI50 up to about 1.1 µM and inactive = higher.

Solved cases (5 shown):
CCOC12SC(Nc3ccc(C)cc3)=NN1C(=S)N(C)N=C2C (centres undefined): > 100 µM (inactive)
CC1=C/C(=C(/c2ccc(O)c(C)c2)c2ccccc2C(=O)O)C=CC1=O: 17.7 µM (inactive)
Cn1c(N/N=C/c2ccccc2)nc(-c2ccc([N+](=O)[O-])cc2)c(C#N)c1=O: > 100 µM (inactive)
CC1=CCC(=O)[C@]2(C)C(CC(=O)O)[C@]3(C)C4=C(C)C(c5ccoc5)C[C@@H]4O[C@@H]3[C@H](O)[C@@H]12 (some centres undefined): > 100 µM (inactive)
Cc1cc([N+](=O)[O-])ccc1Nc1cccc(Cl)c1C: 19.1 µM (inactive)

Please state GI50 for every compound in the list that follows.
1. CC(N/N=C(\S)N1CCN(c2ccccn2)CC1)c1nccc2ccccc12 (centres undefined)
2. O=CC(O)C(O)C(O)C(O)COC(=O)NCCCCC(=O)C(F)(F)C(F)(F)C(F)(F)C(F)(F)C(F)(F)C(F)(F)C(F)(F)F (centres undefined)
3. COc1cc(N(C)C)c(OC)cc1C=C1C=CC=C1
4. CC(CCOc1ccc2ccc(=O)oc2c1)C1=CC(=O)C(C)(C)O1 (centres undefined)

2.56 µM (inactive)
16 µM (inactive)
> 100 µM (inactive)
3.09 µM (inactive)

====

Kindly supply the reported GI50 values for the records listed here.
# Tested on: SF-539
# Test Details: NCI tumour cell line growth inhibition, 48 h
The source made the active and inactive calls. Cut-off read from the data, not from the text of the source: active = GI50 up to about 1.1 µM and inactive = higher.

Solved cases (3 shown):
NC1=C(c2nc(-c3ccccc3)cs2)C(c2ccco2)c2c(c3ccccc3oc2=O)O1 (stereo unspecified): > 100 µM (inactive)
COc1ccc([N+](=O)[O-])c2c(NCCCN(C)C)ccnc12: 4.6 µM (inactive)
CC1(O)CC(C(F)(F)F)(C(F)(F)F)OC1=O (stereo unspecified): > 10 µM (inactive)

Please state GI50 for every compound in the list that follows.
1. Cc1ncc([N+](=O)[O-])n1CCNC(=O)CCCn1cnc([N+](=O)[O-])n1
2. O=c1cc2ccccc2nn1-c1ccccc1Cl
3. C=CC1(c2ccc(-c3ccccc3)cc2)OCCO1

1. > 100 µM (inactive)
2. > 100 µM (inactive)
3. > 100 µM (inactive)

====

# System: SK-MEL-28
# Test Details: NCI tumour cell line growth inhibition, 48 h
Calls of active or inactive are those of the source. Cut-off read from the data, not from the text of the source: active = GI50 up to about 1.1 µM and inactive = higher.
Measurement Kind: GI50

Solved cases (5 shown):
COc1ccc2c(ccc3c(C(=O)NCCCN(C)CCCNC(=O)c4cn(C)c5c4ccc4cc(OC)ccc45)cn(C)c32)c1: 1.77 µM (inactive)
COc1cccc(N2C(=O)C3c4[nH]c5ccccc5c4C4CCCC4C3C2=O)c1 (stereo not drawn): > 10 µM (inactive)
COc1ccc(C2C3=C(COC3=O)OC(C)(C)Oc3cc4c(cc32)OCO4)cc1 (stereo not drawn): 43.1 µM (inactive)
CC(O)C(CO)NC(=O)C1CSSCC(NC(=O)C(N)Cc2ccccc2)C(=O)NC(Cc2ccccc2)C(=O)NC(Cc2c[nH]c3ccccc23)C(=O)NC(CCCCN)C(=O)NC(C(C)O)C(=O)N1 (stereo not drawn): > 100 µM (inactive)
C=C1C(C)C2C(Cc3ccccc3)NC(=O)C23C(OC(C)=O)/C=C/C(C)(O)CC(C)C/C=C/C3C1O (stereo not drawn): 3.94 µM (inactive)

Please state GI50 for every molecule in the list that follows.
1. O=c1[nH]c2cc([N+](=O)[O-])c(N/N=C/c3ccc(Cl)cc3Cl)c([N+](=O)[O-])c2[nH]1
2. CN1N=C(c2ccccc2)c2cc(Cl)ccc2N=C1N/N=C/c1ccc(N(C)C)cc1

1: > 100 µM (inactive); 2: > 100 µM (inactive)

What value of GI50 has been recorded for this entry: Cc1cc(C)c(-c2no/c(=N\S(=O)(=O)c3ccc(Cl)cc3)o2)c(C)c1
> 100 µM (inactive)

====

# System: OVCAR-3
# Test Details: NCI tumour cell line growth inhibition, 48 h
Calls of active or inactive are those of the source. Rule as the data show it: active = GI50 up to about 1.1 µM and inactive = higher.
Measurement Kind: GI50

Solved cases (6 shown):
O=C(O)C1=C(C(=O)Nc2ccc(NC(=O)C3=C(C(=O)O)C4C=CC3C4)cc2)C2C=CC1C2: > 100 µM (inactive)
CC12CC(c3ccccc3O1)C(C(=O)Nc1ccc(Cl)cc1Cl)C(=O)N2 (stereo not drawn): 38 µM (inactive)
CC1(C)c2ccccc2C(O)C12CCC(=O)CC2 (stereo not drawn): > 100 µM (inactive)
COc1cc(N(C)C)c(OC)cc1C=C1C=CC=C1: > 100 µM (inactive)
NC(=S)N/N=C/c1ncccc1N: 2.25 µM (inactive)
C=C1C(C2(C)C=CC(=O)OC3(C)COC(=O)CC32)C(OC=O)C(OC(=O)C(O)C(C)CC)C2(C)C(c3ccoc3)CC(OC(C)=O)C12O (stereo not drawn): > 100 µM (inactive)

Please state GI50 for every molecule in the list that follows.
1. CC(O)C(CO)NC(=O)C1CSSCC(NC(=O)C(N)Cc2ccccc2)C(=O)NC(Cc2ccccc2)C(=O)NC(Cc2c[nH]c3ccccc23)C(=O)NC(CCCCN)C(=O)NC(C(C)O)C(=O)N1 (stereo not drawn)
2. O=C(c1ccccc1)c1oc2ccc(Br)cc2c1-c1cnn(-c2ccccc2)c1
3. O=C(OC1CCC2OOC1O2)c1ccc([N+](=O)[O-])cc1 (stereo not drawn)

["> 100 µM (inactive)", "> 100 µM (inactive)", "> 100 µM (inactive)"]

Please state GI50 for every molecule in the list that follows.
1. [O-][S+](CCc1ccccc1)Nc1ccccc1 (stereo not drawn)
2. Cc1ncc([N+](=O)[O-])n1CCNC(=O)CCCn1cnc([N+](=O)[O-])n1
3. CCOC(=O)C1(O)C(=O)C2=C3C(=O)OC(C4OC(=O)c5c(c(O)c(O)c(O)c5C31)-c1c(cc(O)c(O)c1O)C(=O)OC1COC(=O)c3cc(O)c(O)c(O)c3-c3c(cc(O)c(O)c3O)C(=O)OC14)[C@@H]2O (stereo partly drawn)
4. C=C1C(C)C2C(Cc3ccccc3)NC(=O)C23C(OC(C)=O)/C=C/C(C)(O)CC(C)C/C=C/C3C1O (stereo not drawn)
5. O=S(=O)(c1ccccc1)n1cnc(CCc2ccccc2)n1
6. O=C(Cc1nccc2c1[nH]c1ccccc12)OC1C#CCSCC#C/C=C\1 (stereo not drawn)
7. CC(=O)NC1C(OCc2ccccc2)OC(COC(=O)CCCCCCCCCCNC(=O)c2cccc3c(=O)c4ccccc4[nH]c23)C(O)C1OC(C)C(=O)NC(C)C(=O)NC(CCC(N)=O)C(N)=O (stereo not drawn)
8. CC(C)=CC(=O)N(C)C1C2CN3CCC(O2)C13 (stereo not drawn)

> 100 µM (inactive)
> 100 µM (inactive)
32.6 µM (inactive)
2.19 µM (inactive)
> 100 µM (inactive)
95.9 µM (inactive)
43.8 µM (inactive)
> 100 µM (inactive)

Which GI50 is reported with OVCAR-3 for this entry: COc1cc(/C=C2\N=C(c3ccccc3)N(c3nc4ccc(Sc5ccccc5)cc4[nH]3)C2=O)cc(OC)c1OC ?
22.6 µM (inactive)

====

Kindly supply the reported GI50 values for the records listed here.
# Test system: MOLT-4
# Test Details: NCI tumour cell line growth inhibition, 48 h
Active and inactive are the calls of the source. Rule as the data show it: active = GI50 up to about 1.1 µM and inactive = higher.

Solved cases (3 shown):
O=c1c(Br)cc2c(-c3ccccc3)c3cc(Br)c(O)c(Br)c3oc-2c1Br: 29.1 µM (inactive)
COC(=O)C1C=CCON2CCc3c(n(C)c4ccccc34)C12 (centres undefined): > 100 µM (inactive)
NCCOCC(N)C(=O)O (centres undefined): > 100 µM (inactive)

Let us examine a further case.
What value of GI50 has been recorded for this entry: CC(C)(C)c1cc2c(OC/C=C/c3ccccc3)c(c1)Cc1cc(C(C#N)(OC/C=C/c3ccccc3)OC/C=C/c3ccccc3)cc(c1OC/C=C\c1ccccc1)Cc1cc(C(C)(C)C)cc(c1OC/C=C/c1ccccc1)Cc1cc(C(C#N)(OC/C=C\c3ccccc3)OC/C=C/c3ccccc3)cc(c1OC/C=C\c1ccccc1)C2 (centres undefined)
> 100 µM (inactive)

====

Kindly supply the reported GI50 values for the records listed here.
# System: OVCAR-3
# Test Details: NCI tumour cell line growth inhibition, 48 h
The source made the active and inactive calls. Cut-off read from the data, not from the text of the source: active = GI50 up to about 1.1 µM and inactive = higher.

Solved cases (6 shown):
CC12CC(c3ccccc3O1)C(C(=O)Nc1ccc(F)cc1)C(=O)N2 (stereo unspecified): > 100 µM (inactive)
O=C1C2Cc3ccccc3CN2C(=O)N1CCN1CCOCC1 (stereo unspecified): > 100 µM (inactive)
CCN(CC)CCCNc1nncc2cc3c([nH]c4ccccc43)c(C)c12: 10.4 µM (inactive)
O=C(O)C1CCN(Cc2oc(CO)cc(=O)c2O)C1 (stereo unspecified): > 100 µM (inactive)
COC(=O)[C@H](CNC(=O)/C=C/c1ccc(OC(C)=O)c(OC(C)=O)c1)NC(=O)/C=C/c1ccc(OC(C)=O)c(OC(C)=O)c1: > 100 µM (inactive)
N#C/C(=C/c1cccnc1)C(=O)c1ccccc1: > 100 µM (inactive)

Please state GI50 for every compound in the list that follows.
1. CCCCCC(C)SC1(C(=O)OC)CC(OC(C)=O)C(NC(C)=O)C([C@H](OC(C)=O)[C@@H](COC(C)=O)OC(C)=O)O1 (stereo partly specified)
2. CN1N=C(c2ccccc2)c2cc(Cl)ccc2N=C1N/N=C/c1ccc(N(C)C)cc1
3. SC1=Nc2ccccc2-c2nc(-c3ccccc3)cc(-c3ccc(Br)cc3)c2C1
4. C/C(CC(=O)Nc1ccc(Cl)c(Cl)c1)=N/NC(=O)C[N+](C)(C)C
5. CCC(/C=C/c1ccccc1)=N\N=C(\C=C\c1ccccc1)CC
6. C#Cc1cccc(N2C(=O)c3c(c(-c4ccccc4)c(-c4ccc(Cc5ccc(-c6c(-c7ccccc7)c7c(c(-c8ccccc8)c6-c6ccccc6)C(=O)N(c6cccc(C#C)c6)C7=O)cc5)cc4)c(-c4ccccc4)c3-c3ccccc3)C2=O)c1
7. O=C(CN1c2ccccc2Sc2ccccc21)N1CCNCC1
8. O=C1C(c2ccc([N+](=O)[O-])cc2)=[N+]([O-])c2ccccc21

1. 90.4 µM (inactive)
2. > 100 µM (inactive)
3. 2.29 µM (inactive)
4. > 100 µM (inactive)
5. > 100 µM (inactive)
6. 44.3 µM (inactive)
7. > 100 µM (inactive)
8. 19.9 µM (inactive)
